Test system: 885724-159-R-J1-PDC complex spheroid viability
measurement_protocol: Anticancer human tumor 885724-159-R-J1-PDC patient-derived pancreatic adenocarcinoma cell line growth inhibition [POLQ]
assay_conditions: second compound 1 µM; first compound 3.16 µM; stronger effect = lower value
Procedure: Multicellular complex tumor spheroid response to Polymerase (POL) inhibitors (novobiocin, ART-558, RP6685) in combination with a variety of drugs and investigational agents in selected tumor cell lines The POL inhibitors (novobiocin, ART-558, and RP6685) were evaluated both individually and in combination with standard of care and investigational anticancer small molecules within a complex spheroid model of solid tumors. . […]
measured_metric: viability, T/C (%)
Answers are plain numbers, in %.

CC1COCCN1c1cc(C2(O)CC3CCC(C2)O3)c2cnn(-c3ccn[nH]3)c2n1 (stereo not given) + Nc1ccc(C#CCN(C(=O)Cc2ncc(C(F)(F)F)cc2C(F)(F)F)c2ccc(F)cc2)nn1 | 35.9
C=CC(=O)N1CCN(c2nc(=O)n(-c3c(C)ccnc3C(C)C)c3nc(-c4c(O)cccc4F)c(F)cc23)C(C)C1 (stereo not given) + Cc1cccc(N(C)C(=O)C2C(O)CCN2c2nc(C)cc(C(F)(F)F)c2C#N)c1 | 103
CC1COCCN1c1cc(C2(S(C)(=N)=O)CC2)nc(-c2ccnc3[nH]ccc23)n1 (stereo not given) + Cc1cccc(N(C)C(=O)C2C(O)CCN2c2nc(C)cc(C(F)(F)F)c2C#N)c1 | 52.3
COc1ccc([C@@H](O)c2cc(-c3ncnc4cc(N5CCOCC5)ccc34)c(F)cc2Cl)nn1 + Cc1cccc(N(C)C(=O)C2C(O)CCN2c2nc(C)cc(C(F)(F)F)c2C#N)c1 | 55.3

Asked: GET /values?readout=viability, T/C&item= CCc1cc2c(N3CCc4c(cc(Cn5ccnc5)cc4-c4cn(C)nc4C(F)(F)F)C3=O)ccnc2c(OC)n1 + COC1C(OC(N)=O)C(O)C(Oc2ccc3c(O)c(NC(=O)c4ccc(O)c(CC=C(C)C)c4)c(=O)oc3c2C)OC1(C)C
Given back: 77

----------
Tested on: 885724-159-R-J1-PDC complex spheroid viability
measurement_protocol: Anticancer human tumor 885724-159-R-J1-PDC cell line growth inhibition [POLQ];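 also: spheroids exposed to compounds for 7 days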
assay_conditions: second compound 0.316 µM; first compound 0.0316 µM; stronger effect = lower value
measured_metric: viability, T/C (%)
One number for each entry, in %.

Before answering, review these 5 worked examples.
C#Cc1c(F)ccc2cc(O)cc(-c3ncc4c(N5CC6CCC(C5)N6)nc(OCC56CCCN5CC(F)C6)nc4c3F)c12 (stereo unspecified) + Nc1ccc(C#CCN(C(=O)Cc2ncc(C(F)(F)F)cc2C(F)(F)F)c2ccc(F)cc2)nn1 | 116
COc1ccc([C@@H](O)c2cc(-c3ncnc4cc(N5CCOCC5)ccc34)c(F)cc2Cl)nn1 + Nc1ccc(C#CCN(C(=O)Cc2ncc(C(F)(F)F)cc2C(F)(F)F)c2ccc(F)cc2)nn1 | 98.7
O=C(c1cc(Cc2n[nH]c(=O)c3ccccc23)ccc1F)N1CCN(C(=O)C2CC2)CC1 + Nc1ccc(C#CCN(C(=O)Cc2ncc(C(F)(F)F)cc2C(F)(F)F)c2ccc(F)cc2)nn1 | 85.4
CCc1cc2c(N3CCc4c(cc(Cn5ccnc5)cc4-c4cn(C)nc4C(F)(F)F)C3=O)cc(C)nc2c(OC)n1 + Nc1ccc(C#CCN(C(=O)Cc2ncc(C(F)(F)F)cc2C(F)(F)F)c2ccc(F)cc2)nn1 | 86.7
O=C(Nc1ccc(O)c(NS(=O)(=O)c2ccc(F)cc2)c1)c1ccc(-c2ccccc2)cc1 + COC1C(OC(N)=O)C(O)C(Oc2ccc3c(O)c(NC(=O)c4ccc(O)c(CC=C(C)C)c4)c(=O)oc3c2C)OC1(C)C | 105

// each listed molecule needs a value for viability, T/C
1. O=c1[nH]cc(F)c(=O)[nH]1 + COC1C(OC(N)=O)C(O)C(Oc2ccc3c(O)c(NC(=O)c4ccc(O)c(CC=C(C)C)c4)c(=O)oc3c2C)OC1(C)C
2. COc1cc2cc(C(=O)CCC(=O)O)sc2cc1OC + Cc1cccc(N(C)C(=O)C2C(O)CCN2c2nc(C)cc(C(F)(F)F)c2C#N)c1
3. COc1ccc([C@@H](O)c2cc(-c3ncnc4cc(N5CCOCC5)ccc34)c(F)cc2Cl)nn1 + Cc1cccc(N(C)C(=O)C2C(O)CCN2c2nc(C)cc(C(F)(F)F)c2C#N)c1

Given back:
1. 99
2. 99.5
3. 104
